biological target: DNA gyrase from E. coli (Escherichia coli, UniProt P0AES4+P0AES6); assay: E. coli DNA gyrase inhibition (Inspiralis assay)
assay-readout: IC50 (µM)
Numeric answer only, unit µM assumed.

Task item: # input compound: CCCCCN(C)Cc1cc(C(=O)O)ccc1-c1cc2cc3cc(F)cc(NC)c3nc2[nH]1 ; wanted: its IC50
Reply: 0.025
